Molecular target: T1, PSMA Fab (biotinylated (site not stated))
T1 construct: also called Anti-PSMA Fab; 006 PSMA Fab
Experiment: phage ELISA; PSMA Fab on plate pre-incubated with PSMA antigen as competitor, anti-M13 HRP detection;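 further: crude clonal phage supernatants added to Fab-coated wells still holding PSMA antigen in blocking buffer, with bound phage as read-out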
Where no end group is shown, it is not given here.
The recorded phage binding ELISA signal (Anti-PSMA Fab, PSMA antigen present) of each item maps onto one of these classes: bottom end: < 0.07; midrange: ≥ 0.07 and < 0.09; top end: ≥ 0.09

A selection of reference data follows.
# BINDER, QUALITATIVE LABEL
measured = [
    ("PEALCMPPWMCHGF [Phage-2996]", "bottom end"),
    ("MMPLCMPTWMCEGF [Phage-3001]", "midrange"),
    ("YEIRCEPKWMCMGF [Phage-2992]", "midrange"),
    ("LAHMCIPAWMCAGL (cysteine pairing not given here; also: peptide displayed as fusion to phage pIII) [Phage-2993]", "top end"),
]

In the following, a different binder is considered.
input: Which class is correct for the following binder? MSPRCVPMWMCDWL [Phage-2997]
output: midrange
